# assayProcedure: Toxicity liver stage against HepG2, at 10uM
# Assay type: cell-based
# Parameters: test concentration 10 uM, cell line HepG2-A16-CD81EGFP
# conditionDescription: human, HepG2-A16-CD81EGFP cells; read-out: INHIBITION
readoutLabel: cytotoxicity at 10 µM (%)
Numbers only, in %.

1) CN(Cc1cn[nH]c1-c1ccc(F)cc1)C(=O)CCC1CC1: 9.12

Count: 6. Required value per item: cytotoxicity at 10 µM.
1. NC1CCC(n2cc(C(=O)NC3COc4ccccc43)nn2)CC1 (stereo unspecified)
2. CN1CCOC(CNCCCOc2ccc(C#N)cc2)C1 (stereo unspecified)
3. Cc1cc(=O)[nH]c(-n2nc(C)c(CCC(=O)NCC(C)C)c2C)n1
4. CCc1nc(C2CCCN2Cc2nc3ccccc3o2)no1 (stereo unspecified)
5. Cc1nc(-c2ccco2)ccc1C(=O)N1CCCC1Cn1cccn1 (stereo unspecified)
6. CC(C)c1nccn1C1CCCN(C(=O)c2ccc3c(c2)COC3)C1 (stereo unspecified)

-4.8
6.91
2.28
3.06
5.61
3.19

Count: 4. Required value per item: cytotoxicity at 10 µM.
1. O=C(c1cc(C2CC2)on1)N1C[C@H]2CC[C@](O)(c3ccc(F)cc3)[C@H]2C1
2. CCNC(=O)NC[C@H]1Cn2c(-c3ccccc3)cnc2CO1
3. O=C(NCCn1cccn1)c1nnc2ccccc2n1
4. O=C(NC[C@]1(O)CN(Cc2ccccc2F)C[C@H]1O)c1cscn1

3.94
-2.12
-2.41
-12

These data points were gathered from ChEMBL document CHEMBL4513216.
